Kd values by entry
target.of.assay: Pf MRNBD Y199C (Pyrococcus furiosus, UniProt Q8U1N9;P58301 1-426;1-195+709-882, Y199C;internal_change)
assay.summary: fluorescence polarization; 1 mM MnCl2, 0.1 mM EDTA, no ATP/Mg2+; FP: 25 nM DNA, 50 mM HEPES, 100 mM NaCl, 1 mM MnCl2, 0.1 mM EDTA, 1% glycerol, 1 mM TCEP, 0.1% PEG-6000, pH 7, 15 min room temperature; NMR at 50 C
// note: answer is a bare numeric in nM

GTGTTCGGACTCTGCCTCAAGACGGTAGTCAACGTGCTTG (ssDNA) [FAM 40-mer ssDNA]; 350

So what does the record say about Kd for FAM 40-mer dsDNA (dsDNA) DNA 1: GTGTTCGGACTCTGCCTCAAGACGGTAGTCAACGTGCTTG DNA 2: CAAGCACGTTGACTACCGTCTTGAGGCAGAGTCCGAACAC ? 2500
